# measuredOn: nuclear receptor TLX (NR2E1) ligand-binding domain (Homo sapiens (Human), UniProt Q9Y466)
# Sequence (Q9Y466 155-383): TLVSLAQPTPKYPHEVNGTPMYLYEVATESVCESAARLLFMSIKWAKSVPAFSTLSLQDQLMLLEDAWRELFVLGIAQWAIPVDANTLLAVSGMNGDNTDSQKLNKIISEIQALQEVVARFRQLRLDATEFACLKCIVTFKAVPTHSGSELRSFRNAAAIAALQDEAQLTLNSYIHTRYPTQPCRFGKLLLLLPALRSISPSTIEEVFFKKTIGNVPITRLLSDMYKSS
# assayExplanation: AlphaScreen assay detecting TLX-RIP140 NR box peptide interaction
# protocolConditions: his-tagged TLX LBD, biotinylated RIP140-L6 peptide recruitment
pEC50: −log10 of the molar value.
recordedEndpoint: pEC50

Would you please look over these solved cases?
>>> valueobserved("CCCCCCC[C@@H](C)/C=C(/C)C/C(C)=C/[C@@H](C)CCCC(=O)O")
5.89
>>> valueobserved("CCCCCCCCC[C@H](C)/C=C(/C)C/C(C)=C/[C@@H](C)CC(=O)O")
5.72
>>> valueobserved("CCCCCCCCC[C@H](C)/C=C(/C)C/C(C)=C/[C@H](C)CC(=O)O")
5.77
>>> valueobserved("CCCCCCCCC[C@@H](C)/C=C(/C)C/C(C)=C/[C@H](C)CC(=O)O")
5.51
>>> valueobserved("CCCCCCC[C@H](C)/C=C(/C)C/C(C)=C/[C@H](C)CCCC(=O)O")
5.89

P = CCC[C@H](C)/C=C(/C)C/C(C)=C/[C@H](C)CCCCCCCC(=O)O
Q = CCCCCCCC/C=C(/C)C/C(C)=C/[C@@H](C)CCCC(=O)O
Ask: Select the item with the higher value of pEC50 from the options P and Q listed. Please indicate the selected item by its label.
Reply: P
(P: 5.89, Q: 5.51)

1 = CCCCC[C@H](C)/C=C(/C)C/C(C)=C/[C@@H](C)CCCCCC(=O)O
2 = CCC[C@@H](C)/C=C(/C)C/C(C)=C/[C@H](C)CCCCCCCC(=O)O
3 = CCCCCCCC/C=C(/C)C/C(C)=C/[C@H](C)CCCC(=O)O
Ask: Which order do these items take when sorted by rising pEC50? List them. Labels, ranked as asked.
Reply: 3, 2, 1
(3: 5.60, 2: 5.82, 1: 6.05)

a = CCCCC[C@@H](C)/C=C(/C)C/C(C)=C/[C@H](C)CCCCCC(=O)O
b = CCCC/C=C(/C)C/C(C)=C/[C@H](C)CCCCCCCC(=O)O
Ask: Rank a against b by their pEC50 values and give the higher one. Write down the label of the entry you select.
Reply: a

A = CCC[C@@H](C)/C=C(/C)C/C(C)=C/[C@@H](C)CCCCCCCC(=O)O
B = CCCCCCCCC[C@@H](C)/C=C(/C)C/C(C)=C/[C@@H](C)CC(=O)O
C = CCCCCC/C=C(/C)C/C(C)=C/[C@@H](C)CCCCCC(=O)O
Ask: Order the records, beginning with the lowest pEC50 and ending with the highest. Record the ranking as a list of labels in the requested order.
Reply: B, A, C
